# target_or_system: MIF-CD74 Binding (biotin-labeled recombinant human MIF, recombinant human MIF receptor CD74 ectodomain) (Homo sapiens)
# Sequence (P14174 2-115 limits assumed): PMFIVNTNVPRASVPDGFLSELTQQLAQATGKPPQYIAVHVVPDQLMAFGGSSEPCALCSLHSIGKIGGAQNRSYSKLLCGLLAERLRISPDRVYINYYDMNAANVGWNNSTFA
# assay_remarks: MIF-CD74 binding (capture) assay
# experimental_setup: Table 14
Each entry below carries its reported concentration of CD74 % MaxInhib (number after @).
measured_parameter: concentration of CD74 % MaxInhib (number after @) (µM)

>  <structure_notation>
Cc1ccc2cc(C(=O)N3CCc4ccccc43)oc2c1

>  <result>
0.24

$$$$
>  <structure_notation>
Cc1ccc2c(c1)CCN2C(=O)c1cc2ccccc2o1

>  <result>
0.95

$$$$
>  <structure_notation>
O=C(c1cc2ccccc2o1)N1CCc2cc(F)ccc21

>  <result>
1.87

$$$$
>  <structure_notation>
O=C(c1cc2cc(F)ccc2o1)N1CCc2ccccc21

>  <result>
0.12

$$$$
>  <structure_notation>
COc1ccc2oc(C(=O)N3CCc4ccccc43)cc2c1

>  <result>
0.24

$$$$
>  <structure_notation>
COc1ccc2cc(C(=O)N3CCc4ccccc43)oc2c1

>  <result>
0.078

$$$$
>  <structure_notation>
Cc1ccc2c(c1)N(C(=O)c1cc3ccccc3o1)CC2

>  <result>
0.039

$$$$

----------
# target_or_system: MIF-CD74 Binding (biotin-labeled recombinant human MIF, recombinant human MIF receptor CD74 ectodomain) (Homo sapiens, UniProt P14174)
# Sequence (P14174 2-115 limits assumed): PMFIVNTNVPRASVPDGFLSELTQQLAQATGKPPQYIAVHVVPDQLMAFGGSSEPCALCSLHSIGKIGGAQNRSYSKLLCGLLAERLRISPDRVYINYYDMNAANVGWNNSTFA
# assay_remarks: MIF-CD74 binding (capture) assay
# experimental_setup: Table 15; read-out: CD74 IC50

>  <compound>
CC(=O)Oc1ccc2nc(-c3cc4ccccc4o3)oc(=O)c2c1 [Compound 22]

>  <measure_unit>
nM

>  <IC50>
2500

$$$$

----------
# target_or_system: Human MIF (MIF tautomerase activity) (Homo sapiens, UniProt P14174)
# Construct: made in house
# assay_remarks: HPP tautomerase assay
# Type: biochemical
# experimental_setup: Table 13
Documented concentration of HPP Max Inhib (number after @) across a set of compounds
measured_parameter: concentration of HPP Max Inhib (number after @)

>  <structure_notation>
O=C(c1cc2ccccc2o1)c1cc2cc(O)ccc2o1

>  <result>
1000 µM

$$$$
>  <structure_notation>
Cc1ccc2oc(C(=O)c3cc4ccccc4o3)cc2c1

>  <result>
700 µM

$$$$
>  <structure_notation>
Cc1ccc2cc(C(=O)c3cc4ccccc4o3)oc2c1

>  <result>
1000 µM

$$$$
>  <structure_notation>
O=C(c1cc2ccccc2o1)c1cc2cc(F)ccc2o1

>  <result>
700 µM

$$$$

----------
# target_or_system: MIF-CD74 Binding (biotin-labeled recombinant human MIF, recombinant human MIF receptor CD74 ectodomain) (Homo sapiens, UniProt P14174)
# assay_remarks: MIF-CD74 binding (capture) assay
# experimental_setup: Table 18; read-out: CD74 IC50
pIC50: −log10 of the molar value.

>  <compound>
Oc1ccc(-n2cc(Cc3ccccc3)nn2)cc1 [MIF-003]

>  <pIC50>
5.46

$$$$
